What IC50 was measured for each of the following?
Tested on: TNF-α
Experiment: Whole blood assay, LPS stimulation, MSD cytokine detection
Assay type: cell-based
Conditions: fresh whole bovine blood
Reply with just the number (in µM).

QUERY: Could you share which IC50 value was measured for `CC[C@H]1OC(=O)[C@H](C)[C@@H](O[C@H]2C[C@@](C)(OC)[C@](O)(CNC(C)C)[C@H](C)O2)[C@H](C)[C@@H](O[C@@H]2O[C@H](C)C[C@H](N(C)C)[C@H]2Oc2ccccc2)[C@](C)(O)C[C@@H](C)CN[C@H](C)[C@@H](O)[C@]1(C)O` ?
RESULT: 4

QUERY: Could you share which IC50 value was measured for `CC[C@H]1OC(=O)[C@H](C)[C@@H](O[C@H]2C[C@@](C)(OC)[C@](O)(CNC(C)C)[C@H](C)O2)[C@H](C)[C@@H](O[C@@H]2O[C@H](C)C[C@H](NC)[C@H]2Oc2ccccc2)[C@](C)(O)C[C@@H](C)CN[C@H](C)[C@@H](O)[C@]1(C)O` ?
RESULT: 19

QUERY: Could you share which IC50 value was measured for `CC[C@H]1OC(=O)[C@H](C)[C@@H](O)[C@H](C)[C@@H](O[C@@H]2O[C@H](C)C[C@H](N(C)C(=O)N(C)c3ccccc3)[C@H]2Oc2ccccc2Cl)[C@](C)(O)C[C@@H](C)CN[C@H](C)[C@@H](O)[C@]1(C)O` ?
RESULT: 5

QUERY: Could you share which IC50 value was measured for `CCCNC[C@]1(O)[C@H](C)O[C@@H](O[C@H]2[C@H](C)[C@@H](O[C@@H]3O[C@H](C)C[C@H](N(C)C)[C@H]3Oc3ccc(OC)cc3)[C@](C)(O)C[C@@H](C)CN[C@H](C)[C@@H](O)[C@](C)(O)[C@@H](CC)OC(=O)[C@@H]2C)C[C@@]1(C)OC` ?
RESULT: 16
